Measured selectivity ratio of individual entries
# Assay comment: Selectivity index, ratio of CC50 for monkey LLC-MK2 cells to IC50 for Trypanosoma cruzi Tulahuen lacZ expressing beta-galactosidase amastigotes infected monkey LLC-MK2 cells
# Assay type: toxicity
# Protocol conditions: read-out: Ratio CC50/IC50

[
  {
    "Structure smiles": "O=[N+]([O-])c1nccn1Cc1cc(-c2ccc(N3CCCCCC3)cc2)no1",
    "selectivity ratio": "> 12.8"
  },
  {
    "Structure smiles": "O=[N+]([O-])c1nccn1Cc1cc(-c2ccc3c(c2)OCO3)no1",
    "selectivity ratio": "> 13.8"
  },
  {
    "Structure smiles": "O=[N+]([O-])c1nccn1Cc1cc(-c2ccc(Cl)c(Cl)c2)no1",
    "selectivity ratio": "> 22.2"
  },
  {
    "Structure smiles": "O=[N+]([O-])c1nccn1Cc1cc(-c2ccc(N3CCCC3)cc2)no1",
    "selectivity ratio": "> 21.7"
  },
  {
    "Structure smiles": "COc1cc(OC)cc(-c2cc(Cn3ccnc3[N+](=O)[O-])on2)c1",
    "selectivity ratio": "> 8.3"
  },
  {
    "Structure smiles": "O=[N+]([O-])c1nccn1Cc1cc(-c2cccnc2)no1",
    "selectivity ratio": "> 6.4"
  },
  {
    "Structure smiles": "O=[N+]([O-])c1nccn1Cc1cc(-c2ccc(Cl)cc2)no1",
    "selectivity ratio": 32.5
  },
  {
    "Structure smiles": "CC(C)N1CCN(c2ccc(-c3cc(Cn4ccnc4[N+](=O)[O-])on3)cc2)CC1",
    "selectivity ratio": "> 7.6"
  },
  {
    "Structure smiles": "O=[N+]([O-])c1nccn1Cc1cc(-c2ccc(Br)cc2)no1",
    "selectivity ratio": 8.4
  },
  {
    "Structure smiles": "CCN1CCN(c2ccc(-c3cc(Cn4ccnc4[N+](=O)[O-])on3)cc2)CC1",
    "selectivity ratio": "> 30.8"
  }
]
